B1: EPB41L3 (parent)
chain: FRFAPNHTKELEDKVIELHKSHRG

Variants of: B1
Assay: protein stability index of a GFP-peptide fusion (GPS, HEK-293T) (PSI 1-6); higher = more stable;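 also: lentivirally expressed fusions sorted by FACS into six bins by GFP to DsRed ratio, PSI derived from sequencing read proportions per bin multiplied by bin number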
Conditions: c terminus: a fixed tail appended
# label = satisfied if protein stability index >= 2 else not satisfied

Variant string: D13A
Cat: not satisfied

Variant string: H19S
Cat: satisfied

Variant string: H19Y
Cat: not satisfied

Variant string: A4P
Cat: satisfied

Confirm if protein stability index reported for the variant K20I is 2 or above.
satisfied

Do the same for I16R please
not satisfied

Do the same for E17Y please
satisfied

Do the same for S21G please
satisfied

Do the same for E10W please
not satisfied

Do the same for E12P please
satisfied

Do the same for L11S please
not satisfied

Do the same for T8M please
satisfied

Do the same for R23T please
satisfied

Do the same for E17G please
not satisfied

Do the same for E10H please
not satisfied

Do the same for R23L please
not satisfied
